Values compiled from the supplement of paper PMC6755084.

B1: F1*; the commonest letter at each place (parent)
chain: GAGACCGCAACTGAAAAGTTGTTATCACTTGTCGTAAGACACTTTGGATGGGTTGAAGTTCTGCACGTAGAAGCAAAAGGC

Variants of: B1
Assay: fraction ligated after 30 min (ligated reads / total reads); higher = more ligase activity
Details: with F1*sub RNA substrate (template-directed ligation), 42 °C
observable: fraction ligated

> print(dat)
    variant.label        observable  meas.value
 1      A27G G46A  fraction ligated        0.83
 2      T43A G55C  fraction ligated       0.724
 3      T35G A48C  fraction ligated       0.755
 4      T43A G46A  fraction ligated       0.789
 5      T30G A36G  fraction ligated       0.872
 6      A24T G55A  fraction ligated       0.532
 7      C40A A41T  fraction ligated        0.81
 8      T23C T44C  fraction ligated         0.8
 9      A36G T43G  fraction ligated       0.776
10      A24G C26A  fraction ligated       0.711
11           T29G  fraction ligated       0.829
